For each of the compounds below, state its inhibition of growth at 50 µg/mL.
Test system: Pectobacterium carotovorum
Experiment: Growth inhibition of Pectobacterium carotovorum at 50 ug/ml after 12 hr by turbidometric analysis
Assay type: functional
Conditions: read-out: GI
State the answer as a number, implicitly in %.

-- ask Give recorded inhibition of growth at 50 µg/mL with Pectobacterium carotovorum for the following compound: CCN=C=S [ETHYL ISOTHIOCYANATE]
-- reply 64.6

-- ask Continue with CN=C=S [METHYLISOTHIOCYANATE]
-- reply 61.1

-- ask Continue with CCCCCCCN=C=S
-- reply 97

-- ask Continue with CCCN=C=S [PROPYL ISOTHIOCYANATE]
-- reply 76.3

====

System: Pectobacterium carotovorum
Assay: Growth inhibition of Pectobacterium carotovorum at 5 ug/ml after 12 hr by turbidometric analysis
Format: functional
Conditions: read-out: GI
For each of the compounds below, state its inhibition of growth at 5 µg/mL.
State the answer as a number, implicitly in %.

-- ask Which inhibition of growth at 5 µg/mL reading was recorded for the compound CCCCN=C=S [BUTYL ISOTHIOCYANATE] ?
-- reply 31.7

-- ask Continue with CCCCCN=C=S
-- reply 72.3

-- ask Continue with CCCCCCCCN=C=S
-- reply 70.6

-- ask Continue with CCCCCCCN=C=S
-- reply 28.8

====

Test system: Rhizoctonia solani
Assay: Antifungal activity against Rhizoctonia solani after 24 to 28 […] by growth rate method
Type: functional, organism-based
The threshold is 30 mg/L. Values of EC50 beneath it are tagged Condition met; values meeting or exceeding it are tagged Condition not met.

-- ask Quick check: EC50 of CN=C=S [METHYLISOTHIOCYANATE] under 30 mg/L?
-- reply Condition met

-- ask Continue with CCCCN=C=S [BUTYL ISOTHIOCYANATE]
-- reply Condition not met

-- ask Continue with CCCCCCCCN=C=S
-- reply Condition not met

-- ask Continue with CCCCCCCN=C=S
-- reply Condition not met

-- ask Continue with CCCCCN=C=S
-- reply Condition not met

-- ask Continue with CCN=C=S [ETHYL ISOTHIOCYANATE]
-- reply Condition met

-- ask Continue with CCCN=C=S [PROPYL ISOTHIOCYANATE]
-- reply Condition met

====

For each of the molecules below, state its logP.
Assay: 1-octanol-water partition coefficient, log P of the compound by shake flask method
Type: physicochemical

-- ask Which logP reading was recorded for the molecule CCCCCCCN=C=S [1-ISOTHIOCYANATOHEPTANE] ?
-- reply 4.19

-- ask Continue with CCN=C=S [ETHYL ISOTHIOCYANATE]
-- reply 1.64

-- ask Continue with CCCCN=C=S [BUTYL ISOTHIOCYANATE]
-- reply 2.66

-- ask Continue with CCCCCN=C=S [1-ISOTHIOCYANATOPENTANE]
-- reply 3.17

-- ask Continue with CN=C=S [METHYLISOTHIOCYANATE]
-- reply 1.13

-- ask Continue with CCCN=C=S [PROPYL ISOTHIOCYANATE]
-- reply 2.15

-- ask Continue with CCCCCCCCN=C=S [1-ISOTHIOCYANATOOCTANE]
-- reply 4.7

-- ask Continue with CCCCCCN=C=S [1-ISOTHIOCYANATOHEXANE]
-- reply 3.68
